# ASSAY REMARKS: Clearance study, liver microsomes (human)
# CONDITION PARAMETERS: pH 7.4
MEASUREMENT KIND: log10 microsomal CLint at 1 μM (log10 of the value in µL/min/mg)

{"columns": ["MOLECULE", "log10 microsomal CLint at 1 μM"],
 "data": [
  ["O=C(NCc1ccc(F)cc1)c1ccc2c(c1)N=C(c1ccc(Cl)cc1)c1ccccc1[S+]2[O-] (centres unmarked) [drawing 1772]", 1.04],
  ["CCCCNC(=O)c1ccc2c(c1)N=C(c1ccc(Cl)s1)c1cc(Cl)ccc1S2 [drawing 1678]", 1.34],
  ["O=C(NCc1ccco1)c1ccc2c(c1)N=C(c1ccc(Cl)s1)c1ccccc1S2 [drawing 1656]", 1.62],
  ["O=C(NCc1ccc(F)cc1)c1ccc2c(c1)N=C(C1CCCCC1)c1ccccc1S2 [drawing 1775]", 1.76],
  ["CC(C)CNC(=O)c1ccc2c(c1)N=C(c1ccc(Cl)cc1)c1ccc(Cl)cc1S2 [drawing 1718]", 0.60],
  ["COc1cccc(C2=Nc3cc(C(=O)NCCCC(F)(F)F)ccc3Sc3ccccc32)n1 [drawing 1667]", 1.38],
  ["O=C(NCc1cccs1)c1ccc2c(c1)N=C(c1ccc(Cl)s1)c1ccccc1S2 [drawing 1723]", 1.48],
  ["O=C(NCc1ccc(Cl)cc1Cl)c1ccc2c(c1)N=C(c1ccc(Cl)cc1)c1ccccc1S2 [drawing 1796]", 0.00],
  ["O=C(NCCc1ccccc1)c1ccc2c(c1)N=C(c1ccc(F)cc1)c1ccccc1S2 [drawing 1773]", 2.04],
  ["O=C(NCc1cccc(Cl)c1)c1ccc2c(c1)N=C(C1CCCCC1)c1ccccc1S2 [drawing 1777]", 1.85],
  ["O=C(NCCc1cccc(Cl)c1)c1ccc2c(c1)N=C(c1ccc(F)cc1)c1ccccc1S2 [drawing 1768]", 1.57],
  ["O=C(NCc1ccc(F)cc1)c1ccc2c(c1)N=C(c1ccccc1)c1ccccc1S2 [drawing 1787]", 1.86],
  ["O=C(NCc1cccc(Cl)c1)c1ccc2c(c1)N=C(c1ccc(F)cc1)c1ccccc1S2(=O)=O [drawing 1670]", 1.51],
  ["O=C(NCCCc1ccccc1)c1ccc2c(c1)N=C(c1cccc(Cl)c1)c1ccccc1S2 [drawing 1765]", 1.86],
  ["CC(CNC(=O)c1ccc2c(c1)N=C(C1CCCCC1)c1ccccc1S2)c1ccccc1 (centres unmarked) [drawing 1769]", 2.10],
  ["CC(C)CNC(=O)c1ccc2c(c1)N=C(c1ccc(Cl)cc1)c1ccc(F)cc1S2 [drawing 1657]", 1.04],
  ["O=C(NCc1ccc(F)cc1)c1ccc2c(c1)N=C(c1ccc(Cl)cc1)c1ccccc1S2 [drawing 1741]", 1.20],
  ["O=C(NCc1cccnc1)c1ccc2c(c1)N=C(c1ccc(Cl)c(Cl)c1)c1ccccc1S2 [drawing 1664]", 1.28],
  ["O=C(NCc1ccccn1)c1ccc2c(c1)N=C(c1ccc(Cl)cc1)c1ccccc1S2 [drawing 1760]", 1.57],
  ["O=C(NCc1cccnc1)c1ccc2c(c1)N=C(c1ccc(Br)cc1)c1ccccc1S2 [drawing 1728]", 1.59],
  ["COc1ccc(C2=Nc3cc(C(=O)NCCC(C)C)ccc3Sc3ccccc32)cc1 [drawing 1785]", 2.09],
  ["O=C(NCc1ccccc1Br)c1ccc2c(c1)N=C(c1ccc(Cl)cc1)c1ccccc1S2 [drawing 1788]", 1.00],
  ["CCCCNC(=O)c1ccc2c(c1)N=C(c1ccc(Br)cn1)c1ccccc1S2 [drawing 1654]", 1.80]
]}

* * *

Catalogue of compounds with associated IC50
# ASSAYED TARGET: CB1 (mutant) (Homo sapiens, UniProt P21554)
# Sequence (P21554 1-417, change not shown): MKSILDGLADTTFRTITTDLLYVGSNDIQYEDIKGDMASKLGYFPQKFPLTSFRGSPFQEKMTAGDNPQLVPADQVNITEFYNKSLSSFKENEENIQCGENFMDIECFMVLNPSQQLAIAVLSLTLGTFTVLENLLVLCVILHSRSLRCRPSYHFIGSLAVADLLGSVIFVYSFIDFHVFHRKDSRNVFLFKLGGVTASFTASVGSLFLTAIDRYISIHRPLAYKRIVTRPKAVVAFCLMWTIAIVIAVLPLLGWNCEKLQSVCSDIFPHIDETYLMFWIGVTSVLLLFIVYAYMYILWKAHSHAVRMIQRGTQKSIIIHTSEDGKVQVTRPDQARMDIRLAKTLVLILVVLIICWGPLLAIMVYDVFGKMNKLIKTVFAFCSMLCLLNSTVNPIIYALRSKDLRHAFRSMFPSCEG
# ASSAY REMARKS: R-SAT functional receptor assay, CB1 (mutant, truncated after amino acid 417)
# Format: cell-based
# CONDITION PARAMETERS: Appendix A; R-SAT CB1; receptor form (mutant or wild-type) not stated; read-out: pIC50 (converted)
MEASUREMENT KIND: IC50 (µM)

{"columns": ["COMPOUND", "ASSAYED TARGET", "VALUE"],
 "data": [
  ["CCCC1=Nc2cc(C(=O)N3CCN(C(=O)OCC)CC3)ccc2Sc2ccccc21", "CB1 (mutant) (Homo sapiens, UniProt P21554)", 1],
  ["O=C(NCc1cccs1)c1ccc2c(c1)N=C(c1ccc(Cl)cc1)c1ccccc1S2 [drawing 751]", "CB1 (mutant) (Homo sapiens, UniProt P21554)", 0.00794],
  ["COc1ccc(C2=Nc3cc(C(=O)NCC(C)C)ccc3Sc3ccccc32)cc1 [drawing 835]", "CB1 (mutant) (Homo sapiens, UniProt P21554)", 0.0126],
  ["CCCNC(=O)c1ccc2c(c1)N=C(c1cccc(F)c1)c1ccccc1S2 [drawing 893]", "CB1 (mutant) (Homo sapiens, UniProt P21554)", 0.0158],
  ["CONC(=O)c1ccc2c(c1)N=C(c1sccc1C)c1ccccc1S2", "CB1 (mutant) (Homo sapiens, UniProt P21554)", 0.501],
  ["C[C@@H]1CCC[C@H](C)N1NC(=O)c1ccc2c(c1)N=C(c1ccc(F)cc1)c1ccccc1S2 [drawing 943]", "CB1 (mutant) (Homo sapiens, UniProt P21554)", 0.02],
  ["CC(C)CNC(=O)c1ccc2c(c1)N=C(c1ccc(Cl)cn1)c1ccc(F)cc1S2 [drawing 558]", "CB1 (mutant) (Homo sapiens, UniProt P21554)", 0.0501],
  ["O=C(c1ccc2c(c1)N=C(N1CCCCC1)c1ccccc1S2)N1CCCCC1", "CB1 (mutant) (Homo sapiens, UniProt P21554)", 0.2],
  ["O=C(NCCc1cccc(Cl)c1)c1ccc2c(c1)N=C(c1ccc(Cl)cc1)c1ccccc1S2 [drawing 911]", "CB1 (mutant) (Homo sapiens, UniProt P21554)", 0.0158],
  ["CCCCNC(=O)c1ccc2c(c1)N=C(c1ccccc1OC)c1ccccc1S2", "CB1 (mutant) (Homo sapiens, UniProt P21554)", 0.251]
]}

* * *

# ASSAY REMARKS: Clearance study, liver microsomes (rats)
# CONDITION PARAMETERS: rat, pH 7.4
Catalogue of compounds with associated log10(microsomal CLint at 1 μM)
MEASUREMENT KIND: log10(microsomal CLint at 1 μM) (log10 of the value in µL/min/mg)

{"columns": ["COMPOUND", "VALUE"],
 "data": [
  ["O=C(NC1CCCCC1)c1ccc2c(c1)N=C(c1ccc(F)cc1)c1ccccc1S2 [drawing 1683]", 2.03],
  ["O=C(NN1CCCCCC1)c1ccc2c(c1)N=C(c1ccc(Cl)s1)c1ccccc1S2 [drawing 1687]", 2.27],
  ["O=C(NCc1cccs1)c1ccc2c(c1)N=C(c1cccc(F)c1)c1ccccc1S2 [drawing 1658]", 2.22],
  ["CCCCNC(=O)c1cc2c(cc1O)Sc1ccccc1C(c1ccc(Cl)cc1)=N2 [drawing 1672]", 0.85],
  ["CCCCNC(=O)c1ccc2c(c1)N=C(c1ccc(F)cn1)c1ccccc1S2 [drawing 1752]", 2.42]
]}

* * *

Catalogue of compounds with associated microsomal CLint at 1 μM
# ASSAY REMARKS: Clearance study, liver microsomes (human)
# CONDITION PARAMETERS: pH 7.4

{"columns": ["COMPOUND", "microsomal CLint at 1 μM (µL/min/mg)"],
 "data": [
  ["O=C(NCCCC(F)(F)F)c1ccc2c(c1)N=C(c1ccc(Cl)cc1)c1ccccc1S2 [drawing 1703]", 13],
  ["O=C(NCCc1ccc(Cl)cc1)c1ccc2c(c1)N=C(c1ccc(Cl)cc1)c1ccccc1S2 [drawing 1807]", 54],
  ["Cc1csc(CNC(=O)c2ccc3c(c2)N=C(c2cccc(F)c2)c2ccccc2S3)c1 [drawing 1709]", 42],
  ["CCCCNC(=O)c1ccc2c(c1)N=C(c1ccc(F)cn1)c1ccccc1S2 [drawing 1752]", 56]
]}

* * *

# ASSAYED TARGET: human CB1 receptor (Homo sapiens)
# Sequence (P21554 whole entry): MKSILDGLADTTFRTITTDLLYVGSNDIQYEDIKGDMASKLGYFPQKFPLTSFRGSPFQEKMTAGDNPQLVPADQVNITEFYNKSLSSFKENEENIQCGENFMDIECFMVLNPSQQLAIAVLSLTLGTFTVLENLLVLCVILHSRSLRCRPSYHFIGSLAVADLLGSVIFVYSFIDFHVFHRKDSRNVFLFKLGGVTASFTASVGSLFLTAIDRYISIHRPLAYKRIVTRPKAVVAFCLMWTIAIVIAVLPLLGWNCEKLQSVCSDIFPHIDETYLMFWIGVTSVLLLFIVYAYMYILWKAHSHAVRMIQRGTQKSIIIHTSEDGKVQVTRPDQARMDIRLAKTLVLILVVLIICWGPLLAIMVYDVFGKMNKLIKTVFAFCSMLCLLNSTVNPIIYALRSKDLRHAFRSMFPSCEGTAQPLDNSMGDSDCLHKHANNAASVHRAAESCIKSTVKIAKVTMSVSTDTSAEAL
# ASSAY REMARKS: CB1 receptor human binding assay ([3H]SR141716A, transfected HEK-293 T membranes)
# CONDITION PARAMETERS: human CB1, HEK-293 T membranes, read-out: Binding Human pKi (converted)

{"columns": ["MOLECULE", "Ki, nM"],
 "data": [
  ["CC(C)CNC(=O)c1ccc2c(c1)N=C(c1ccc(Cl)c(Cl)c1)c1ccccc1S2 [drawing 1192]", 0.398],
  ["CC(C)CNC(=O)c1ccc2c(c1)N=C(c1ccc(Cl)s1)c1ccc(Cl)cc1S2 [drawing 1200]", 0.631],
  ["O=C(NCc1cccs1)c1ccc2c(c1)N=C(c1ccc(F)cc1)c1ccccc1S2 [drawing 1178]", 0.2],
  ["CCCCNC(=O)c1ccc2c(c1)N=C(c1ccc(Cl)cc1)c1ccc(F)cc1S2 [drawing 1184]", 0.251],
  ["CC(C)CNC(=O)c1ccc2c(c1)N=C(c1ccc(Cl)cc1)c1ccc(F)cc1S2 [drawing 1177]", 0.158],
  ["O=C(NCCCC(F)(F)F)c1ccc2c(c1)N=C(c1ccc(Cl)s1)c1ccccc1S2 [drawing 1176]", 0.158]
]}
